target_under_test: human IDO1 expressed endogenously in HeLa cells (Homo sapiens)
Sequence (P14902 whole entry): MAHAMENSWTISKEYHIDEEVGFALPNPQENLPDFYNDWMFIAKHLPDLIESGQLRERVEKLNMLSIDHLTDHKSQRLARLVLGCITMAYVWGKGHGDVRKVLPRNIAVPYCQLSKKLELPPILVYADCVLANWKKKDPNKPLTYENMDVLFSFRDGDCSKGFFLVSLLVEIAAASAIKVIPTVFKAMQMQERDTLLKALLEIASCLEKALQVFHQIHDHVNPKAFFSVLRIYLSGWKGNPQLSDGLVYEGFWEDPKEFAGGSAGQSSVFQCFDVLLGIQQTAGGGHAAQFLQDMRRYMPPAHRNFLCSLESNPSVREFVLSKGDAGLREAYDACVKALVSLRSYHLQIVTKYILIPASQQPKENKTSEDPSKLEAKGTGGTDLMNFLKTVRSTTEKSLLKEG
experiment_description: Cell-based IDO1 inhibition assay
reported_endpoint: IC50 (µM)
State the answer as a number, implicitly in µM.

Exercise: Entry NOC(CCc1ccccc1)c1ccccc1 (stereo not shown) needs its IC50 filled in; supply it.
Key: 14.7

====

target_under_test: human TDO expressed exogenously in T-Rex cells (Homo sapiens)
Sequence (P48775 whole entry): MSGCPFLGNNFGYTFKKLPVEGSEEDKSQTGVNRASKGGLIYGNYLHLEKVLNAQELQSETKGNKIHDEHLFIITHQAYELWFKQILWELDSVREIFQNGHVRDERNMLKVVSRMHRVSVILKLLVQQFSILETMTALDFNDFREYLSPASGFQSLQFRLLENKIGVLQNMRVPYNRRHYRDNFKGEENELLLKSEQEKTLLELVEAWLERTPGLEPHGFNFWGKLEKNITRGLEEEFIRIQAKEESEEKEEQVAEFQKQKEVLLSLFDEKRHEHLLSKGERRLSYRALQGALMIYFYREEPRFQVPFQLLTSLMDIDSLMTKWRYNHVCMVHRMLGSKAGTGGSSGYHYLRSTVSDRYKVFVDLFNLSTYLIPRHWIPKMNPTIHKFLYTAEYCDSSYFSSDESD
experiment_description: Cell-based TDO inhibition assay
reported_endpoint: pIC50
# pIC50: negative log10 of molar concentration; output just the value

Exercise: State the measured pIC50 (human TDO expressed exogenously in T-Rex cells (Homo sapiens)) of NOC(CCc1ccccc1)c1ccccc1 (stereo not shown)
Key: 4.30

====

target_under_test: mouse IDO2 expressed exogenously in T-Rex cells (Mus musculus, UniProt Q8R0V5)
Sequence (Q8R0V5 1-405): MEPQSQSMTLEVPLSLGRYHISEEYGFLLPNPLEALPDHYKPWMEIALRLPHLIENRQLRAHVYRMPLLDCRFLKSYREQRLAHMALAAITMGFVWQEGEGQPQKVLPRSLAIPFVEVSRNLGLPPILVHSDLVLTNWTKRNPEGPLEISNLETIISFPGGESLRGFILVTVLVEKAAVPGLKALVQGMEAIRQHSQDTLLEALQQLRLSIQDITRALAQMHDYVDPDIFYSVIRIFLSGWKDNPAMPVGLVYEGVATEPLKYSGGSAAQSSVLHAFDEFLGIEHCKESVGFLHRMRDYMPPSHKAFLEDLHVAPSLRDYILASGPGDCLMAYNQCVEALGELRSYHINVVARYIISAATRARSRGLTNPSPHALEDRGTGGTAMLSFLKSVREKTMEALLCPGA
experiment_description: Cell-based IDO2 inhibition assay
reported_endpoint: pIC50
# pIC50: negative log10 of molar concentration; output just the value

Exercise: Entry NOC(CCc1ccccc1)c1ccccc1 (stereo not shown) needs its pIC50 filled in; supply it.
Key: 4.71

Values were extracted from paper PMC6318801.
